Biological target: human recombinant GPR65 (Homo sapiens, UniProt Q8IYL9)
Sequence (Q8IYL9 whole entry): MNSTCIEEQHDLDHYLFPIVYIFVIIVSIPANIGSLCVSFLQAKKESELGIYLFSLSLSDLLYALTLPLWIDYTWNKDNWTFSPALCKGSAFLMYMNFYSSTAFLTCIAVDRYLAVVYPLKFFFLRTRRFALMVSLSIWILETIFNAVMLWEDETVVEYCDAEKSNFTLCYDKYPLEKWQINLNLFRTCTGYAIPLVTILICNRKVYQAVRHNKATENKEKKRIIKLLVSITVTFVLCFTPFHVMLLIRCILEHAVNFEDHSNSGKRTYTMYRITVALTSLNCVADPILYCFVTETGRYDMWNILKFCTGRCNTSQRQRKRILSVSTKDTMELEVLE
Assay: Human GPR65 cAMP HTRF antagonist assay
Format: cell-based
// reported IC50 for each item listed

O=C(Nc1cc(Cl)c(-c2cccnc2)cc1F)N1[C@H]2CC[C@@H]1c1n[nH]c(=O)cc1C2    < 500 nM
COc1ncc(-c2cc(F)c(NC(=O)N3[C@H]4CC[C@@H]3c3n[nH]c(=O)cc3C4)cc2Cl)cc1F    < 500 nM
O=C(Nc1cc(Cl)c(C(F)(F)F)cc1F)N1[C@@H]2CC[C@H]1c1n[nH]c(=O)cc1C2    < 500 nM
O=C(Nc1noc2ccccc12)N1[C@H]2CC[C@@H]1c1n[nH]c(=O)cc1C2    500 to 5000 nM
CO[C@H]1C[C@@H](Oc2ccc(NC(=O)N3[C@H]4CC[C@@H]3c3ccnc(F)c3C4)cc2Cl)C1    500 to 5000 nM
O=C(Nc1cc(Cl)c(-c2ccnc(OCC(F)(F)F)c2)cc1F)N1[C@H]2CC[C@@H]1c1c[nH]c(=O)cc1C2    < 500 nM

Okay, now this compound:
Quote IC50 with test system human recombinant GPR65 (Homo sapiens, UniProt Q8IYL9) for `O=C(Nc1cc(Cl)c(-c2ccc(C(F)(F)F)nc2)cc1F)N1[C@H]2CC[C@@H]1c1n[nH]c(=O)cc1C2` < 500 nM

---

Molecular target: human recombinant GPR65 (Homo sapiens, UniProt Q8IYL9)
Test: Human GPR65 cAMP HTRF antagonist assay
Assay type: cell-based
Details: 1321N1-hrGPR65 cells, cAMP HTRF, assay pH 7.2; read-out: hGPR65 IC50 (Activity of selected compounds according to the invention)
IC50 by entry:

CN(C(=O)N1C2CCC1c1ccc(=O)n(C)c1C2)c1cc(Cl)c(Cl)cc1F (racemic) [Compound 288]    > 5 µM

With human recombinant GPR65 (Homo sapiens, UniProt Q8IYL9) as the test system, provide measured IC50 for this compound: O=C(Nc1cc(Cl)c(-c2cncc(CO)c2)cc1F)N1[C@H]2CC[C@@H]1c1n[nH]c(=O)cc1C2 [Compound 128] 0.5 to 5 µM

Give IC50; test system human recombinant GPR65 (Homo sapiens, UniProt Q8IYL9); compound O=C(Nc1ccc(Cl)c(Br)c1)N1[C@@H]2CC[C@H]1c1n[nH]c(=O)cc1C2 [Compound 50] > 5 µM

Report value: IC50, system: human recombinant GPR65 (Homo sapiens, UniProt Q8IYL9), compound: O=C(Nc1cc(Cl)c(Cl)cc1F)N1[C@@H]2CC[C@H]1c1ncc(F)cc1C2 [Compound 95] > 5 µM

Retrieve IC50 on human recombinant GPR65 (Homo sapiens, UniProt Q8IYL9); query CC1(c2ccc(NC(=O)N3[C@H]4CC[C@@H]3c3ccnc(F)c3C4)cc2)COC1 [Compound 61] > 5 µM

---

Biological target: human recombinant GPR65 (Homo sapiens, UniProt Q8IYL9)
Test: Human GPR65 cAMP HTRF antagonist assay
Format: cell-based
Conditions: 1321N1-hrGPR65 cells, cAMP HTRF, assay pH 7.2; read-out: hGPR65 IC50 (Activity of selected compounds according to the invention)
OBSERVABLE: IC50

Here are 2 compounds together with their reported answers.
O=C(Nc1cc(Cl)c(Cl)cc1F)N1[C@H]2CC[C@@H]1c1c(F)ncc(Cl)c1C2 [Compound 99]    500 to 5000 nM
O=C(Nc1cc(Cl)c(Cl)cc1F)N1[C@@H]2CC[C@H]1[C@@H](F)c1ccnc(F)c12 (racemic) [Compound 284]    500 to 5000 nM

Let us examine a further case.
Read the entry Cc1ncc(-c2ccc(NC(=O)N3[C@H]4CC[C@@H]3c3ccnc(F)c3C4)cc2)o1 [Compound 56] and write its reported IC50. 500 to 5000 nM
